// data source = patent US11325899B2

- SUBJECT_OF_TEST: PTGER4 (EP4) (Homo sapiens)
- Sequence (P35408 whole entry): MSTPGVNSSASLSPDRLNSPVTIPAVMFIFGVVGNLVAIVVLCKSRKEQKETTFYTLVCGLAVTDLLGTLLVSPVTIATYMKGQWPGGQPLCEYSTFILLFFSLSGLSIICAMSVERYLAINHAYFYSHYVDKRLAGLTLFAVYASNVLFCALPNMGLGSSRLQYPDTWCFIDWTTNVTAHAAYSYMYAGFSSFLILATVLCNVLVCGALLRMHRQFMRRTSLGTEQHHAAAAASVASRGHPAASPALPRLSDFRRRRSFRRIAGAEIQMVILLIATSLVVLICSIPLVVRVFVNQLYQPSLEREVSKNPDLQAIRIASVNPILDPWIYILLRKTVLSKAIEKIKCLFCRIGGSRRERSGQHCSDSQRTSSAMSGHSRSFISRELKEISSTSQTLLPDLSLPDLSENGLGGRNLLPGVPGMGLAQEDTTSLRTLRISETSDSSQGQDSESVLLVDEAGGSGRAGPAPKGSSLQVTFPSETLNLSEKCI
- TEST_DETAILS: hEP4 b-arrestin assay (PathHunter HEK 293 PTGER4 b-arrestin cells)
- TEST_SETTINGS: antagonistic activity, beta-arrestin assay; read-out: hEP4 b-arr IC50
pIC50: −log10 of the molar value.
READOUT_TYPE: pIC50

Worked cases, pIC50 given:
CCOc1cc(-c2cc(NCCc3c(C)sc4c(C)cc(F)cc34)ncn2)sc1C(=O)O ... 7.80
CCCc1cc(-c2cc(NCCc3c(C)sc4c(C)cc(F)cc34)ncn2)ccc1C(=O)NCCOC ... 6.08
Cc1sc2c(C)cc(F)cc2c1CCNc1cc(-c2ccc(-c3nc(=O)[nH]o3)cc2)ncn1 ... 6.58
CCOc1cc(-c2cc(NCCc3c(C#N)sc4c(OC)cccc34)ncn2)sc1C(=O)O ... 8.70
Cc1sc2c(C)cc(F)cc2c1CCNc1cc(-c2ccc(/C=C/C(=O)O)cc2)ncn1 ... 5.99

I: COc1ccc(F)c2c(CCNc3cc(-c4ccc(C(=O)O)c(OC5CCC5)c4)ncn3)c(C)oc12
II: CCOc1cc(-c2cc(NCCc3c(C#N)sc4c(OC)cccc34)ncn2)ccc1CC(=O)O
Q. Pick one, I or II : lowest reported pIC50. Label of pick, please.
A. I

====

- SUBJECT_OF_TEST: PTGER2 (EP2) (Homo sapiens, UniProt P43116)
- Sequence (P43116 whole entry): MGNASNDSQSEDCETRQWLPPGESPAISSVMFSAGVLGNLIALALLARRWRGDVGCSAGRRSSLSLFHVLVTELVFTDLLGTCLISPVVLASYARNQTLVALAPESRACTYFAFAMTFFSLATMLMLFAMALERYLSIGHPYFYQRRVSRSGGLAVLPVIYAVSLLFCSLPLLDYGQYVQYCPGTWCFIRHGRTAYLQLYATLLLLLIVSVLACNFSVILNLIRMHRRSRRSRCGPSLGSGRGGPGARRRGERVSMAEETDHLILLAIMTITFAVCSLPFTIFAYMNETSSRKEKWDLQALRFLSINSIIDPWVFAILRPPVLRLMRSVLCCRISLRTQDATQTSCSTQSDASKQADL
- TEST_DETAILS: hEP2 b-arrestin assay (PathHunter HEK 293 PTGER2 b-arrestin cells)
- TEST_SETTINGS: antagonistic activity, beta-arrestin assay; read-out: hEP2 b-arr IC50
READOUT_TYPE: IC50 (nM)

CCOc1cc(-c2cc(NCCc3c(C)oc4c(OC)cc(Cl)cc34)ncn2)ccc1OCC(=O)O [Example 121] ... 27

A: CCCc1cc(-c2cc(NCCc3c(C)sc4c(C)cc(F)cc34)ncn2)ccc1CC(=O)O [Example 186]
B: CCc1cc(-c2cc(NCCc3c(C)sc4c(C)cc(F)cc34)ncn2)ccc1CC(=O)O [Example 185]
Q. Just tell me: smaller IC50 value, A or B ? Reply with the label of the item you choose.
A. A

====

- SUBJECT_OF_TEST: PTGER2 (EP2) (Homo sapiens, UniProt P43116)
- TEST_DETAILS: hEP2 b-arrestin assay (PathHunter HEK 293 PTGER2 b-arrestin cells)
- TEST_SETTINGS: antagonistic activity, beta-arrestin assay; read-out: hEP2 b-arr IC50
pIC50: −log10 of the molar value.
READOUT_TYPE: pIC50

a: CCCOc1cc(-c2cc(NCCc3c(C)sc4c(Cl)ccc(Cl)c34)ncn2)ccc1C(=O)O [Example 102]
b: CCCCOc1cc(-c2cc(NCCc3c(C)sc4c(C)cc(F)cc34)ncn2)ccc1C(=O)O [Example 127]
c: CCOc1cc(-c2cc(NCCc3c(C)oc4c(Cl)cc(Cl)cc34)ncn2)ccc1C(=O)O [Example 71]
d: O=C(O)c1ccc(-c2cc(NCCc3csc4ccccc34)ncn2)cc1OC1CCC1 [Example 132]
e: Cc1sc2c(C)cc(F)cc2c1CCNc1cc(-c2ccc(/C=C/C(=O)O)cc2)ncn1 [Example 204]
Q. Highest pIC50 first, then in falling order down to the smallest. Return value: ordered labels per request.
A. c, b, a, d, e
(c: 8.15, b: 7.80, a: 7.59, d: 7.24, e: 6.97)

I: CCOc1cc(-c2cc(NCCc3c(C)sc4c(C)cc(F)cc34)ncn2)[nH]c1C(=O)O [Example 199]
II: CCOc1cc(-c2cc(NCCc3c(C)oc4c(C)cc(F)cc34)ncn2)ccc1OCC(=O)O [Example 124]
Q. Of I and II , which one carries the higher reported pIC50? # respond with the chosen item's label
A. I
(I: 8.30, II: 7.59)
